The following are reported IC50 results, target or system glutathione S-transferase (GST)-linked full-length human Syk protein (Homo sapiens).

Compound	Reported result
CNc1nn(C)c2ccc(Nc3nc(N[C@H](C4CC4)[C@H](C)N)c(F)cc3C(N)=O)cc12 [Example 2-498]	< 0.01 µM

Hi team, please reply with IC50 for each item in this list.
1. Cc1nn(C)c2ncc(Nc3nc(N[C@@H]4CCOC[C@@H]4N)c(F)cc3C(N)=O)cc12 [Example 2-333]
2. CC(C)C[C@@H](Nc1nc(Nc2cccc3c2cnn3CC(F)F)c(C(N)=O)cc1F)[C@H](C)N [Example 2-22]
3. C[C@H](N)[C@H](Nc1nc(Nc2ccc3c(c2)c(OC(F)F)nn3C)c(C(N)=O)cc1F)C1CC1 [Example 2-171]
4. CCn1ncc2c(Nc3nc(N[C@@H]4CCCC[C@@H]4N)c(F)cc3C(N)=O)cncc21 [Example 2-316]
5. COc1ncc(Nc2nc(N[C@H](C3CC3)[C@H](C)N)c(F)cc2C(N)=O)c2cnn(C)c12 [Example 2-408]
6. CCC[C@@H](Nc1nc(Nc2ccc3c(c2)c(OC)nn3C)c(C(N)=O)cc1F)[C@H](C)N [Example 2-80]
7. CC(C)C[C@@H](Nc1nc(Nc2ccc3c(c2)c(N(C)C)nn3C)c(C(N)=O)cc1F)[C@H](C)N [Example 2-3]
8. CC(C)C[C@@H](Nc1nc(Nc2cc(N3CCOCC3)ncc2F)c(C(N)=O)cc1F)[C@H](C)N [Example 2-236]

output:
["0.01 to 0.05 µM", "< 0.01 µM", "< 0.01 µM", "< 0.01 µM", "0.05 to 0.1 µM", "< 0.01 µM", "< 0.01 µM", "0.01 to 0.05 µM"]

* * *

Heads up, these compounds all have IC50 values measured for glutathione S-transferase (GST)-linked full-length human Syk protein (Homo sapiens).

Answered examples (8):
CC[C@H](N)[C@@H](CC)Nc1nc(Nc2cccc3c2cnn3CC)c(C(N)=O)cc1F < 10 nM
CC[C@@H](Nc1nc(Nc2cnc(OCCOC)c(F)c2)c(C(N)=O)cc1F)[C@H](C)N 50 to 100 nM
COc1nn(CC(F)F)c2ccc(Nc3nc(N[C@H](CC4CC4)[C@H](C)N)c(F)cc3C(N)=O)cc12 < 10 nM
C[C@H](N)[C@H](Nc1nc(Nc2cnc(N3CCOCC3)c(F)c2)c(C(N)=O)cc1F)c1cccc(F)c1 < 10 nM
NC(=O)c1cc(F)c(N[C@@H]2CCCC[C@@H]2N)nc1Nc1cncc(-n2cc(Cl)cn2)c1 < 10 nM
C[C@H](N)[C@H](Nc1nc(Nc2ccnc(N3CCOCC3)c2F)c(C(N)=O)cc1F)C1CC1 10 to 50 nM
CC[C@@H](Nc1nc(Nc2ccc3c(c2)c(OC)nn3CC(F)F)c(C(N)=O)cc1F)[C@H](C)N < 10 nM
COc1cc(Nc2nc(N[C@H](c3cccc(F)c3)[C@H](C)N)c(F)cc2C(N)=O)cc(OC)n1 < 10 nM

input: Item COCCn1nc(OC(F)F)c2cc(Nc3nc(N[C@H](COC)[C@H](C)N)c(F)cc3C(N)=O)ccc21 : provide IC50
output: < 10 nM

* * *

Entries with reported IC50 on glutathione S-transferase (GST)-linked full-length human Syk protein (Homo sapiens)

Example results:
CCCC[C@@H](Nc1nc(Nc2cncc(-n3cccn3)c2)c(C(N)=O)cc1F)[C@H](C)N 0.01 to 0.05 µM
COCCn1nc(C)c2cc(Nc3nc(N[C@H](COC)[C@H](C)N)c(F)cc3C(N)=O)ccc21 0.01 to 0.05 µM

Take each entry in turn and give its IC50.
1. CC[C@@H](Nc1nc(Nc2cccc(-n3ccnn3)c2)c(C(N)=O)cc1F)[C@H](C)N
2. CCn1ncc2cc(Nc3nc(N[C@@H]4CCOC[C@@H]4N)c(F)cc3C(N)=O)ccc21
3. C[C@H](N)[C@H](Nc1nc(Nc2ccc3c(c2)c(OC(F)F)nn3C)c(C(N)=O)cc1F)C1CCC1
4. Cc1ncc(Nc2nc(N[C@H](c3cccc(F)c3)[C@H](C)N)c(F)cc2C(N)=O)cc1-n1nccn1

output:
1: < 0.01 µM; 2: < 0.01 µM; 3: < 0.01 µM; 4: 0.01 to 0.05 µM

Would you be so kind as to report IC50 for each listed record?
1. COc1nn(C)c2c(F)cc(Nc3nc(N[C@@H]4CCOC[C@@H]4N)c(F)cc3C(N)=O)cc12
2. CC[C@H](N)[C@@H](C)Nc1nc(Nc2cncc(C3CC3)c2)c(C(N)=O)cc1F
3. Cc1cc(C)cc(Nc2nc(N[C@H](C3CC3)[C@H](C)N)c(F)cc2C(N)=O)c1
4. C[C@H](N)[C@H](Nc1nc(Nc2cnc3c(c2)c(N(C)C)nn3C)c(C(N)=O)cc1F)C1CC1
5. Cc1ncc(Nc2nc(N[C@H](C3CC3)[C@H](C)N)c(F)cc2C(N)=O)cc1F
6. C[C@H](N)[C@H](Nc1nc(Nc2cnc(N3CCOCC3)c(F)c2)c(C(N)=O)cc1F)c1cccs1
7. CC[C@@H](Nc1nc(Nc2ccc3c(c2)c(OC(F)F)nn3C)c(C(N)=O)cc1F)[C@H](C)N

output:
1: < 0.01 µM; 2: < 0.01 µM; 3: < 0.01 µM; 4: 0.01 to 0.05 µM; 5: 0.01 to 0.05 µM; 6: < 0.01 µM; 7: < 0.01 µM

For every item in the list below, what is its measured IC50?
1. Cc1ncc(Nc2nc(N[C@H](C3CCC3)[C@H](C)N)c(F)cc2C(N)=O)cc1F
2. CN(C)c1nn(C)c2ccc(Nc3nc(N[C@@H](CN)Cc4ccccc4)c(F)cc3C(N)=O)cc12

output:
< 0.01 µM
0.01 to 0.05 µM

* * *

Listed here: molecules with reported IC50 for glutathione S-transferase (GST)-linked full-length human Syk protein (Homo sapiens).

Example molecules with recorded IC50:
Molecule	Tested system	IC50
COc1nn(C)c2c(F)cc(Nc3nc(N[C@H](C4CC4)[C@H](C)N)c(F)cc3C(N)=O)cc12 [Example 2-154]	glutathione S-transferase (GST)-linked full-length human Syk protein (Homo sapiens)	< 0.01 µM
CC(C)[C@@H](Nc1nc(Nc2cncc(C3CC3)c2)c(C(N)=O)cc1F)[C@H](C)N [Example 2-111]	glutathione S-transferase (GST)-linked full-length human Syk protein (Homo sapiens)	0.01 to 0.05 µM
COc1nn(C)c2ncc(Nc3nc(N[C@@H](CN)CC(C)C)c(F)cc3C(N)=O)cc12 [Example 2-250]	glutathione S-transferase (GST)-linked full-length human Syk protein (Homo sapiens)	< 0.01 µM

# input for lookup
input: State the measured IC50 (glutathione S-transferase (GST)-linked full-length human Syk protein (Homo sapiens)) of COCCn1nc(OC(F)F)c2cc(Nc3nc(N[C@H](C4CC4)[C@H](C)N)c(F)cc3C(N)=O)ccc21 [Example 2-176]
output: < 0.01 µM

* * *

What pIC50 was measured for each of the following?
- Tested system: glutathione S-transferase (GST)-linked full-length human Syk protein (Homo sapiens, UniProt P43405)
pIC50: −log10 of the molar value.

I have 3 molecules here; please give me pIC50 for each one.
1. CCn1ncc2c(Nc3nc(N[C@@H]4CCOC[C@@H]4N)c(F)cc3C(N)=O)cncc21
2. Cc1nn(-c2cncc(Nc3nc(N[C@H]4CCCC[C@H]4N)c(F)cc3C(N)=O)c2)nc1C (stereo in doubt)
3. COCCn1nc(C)c2cc(Nc3nc(N[C@H](C4CC4)[C@H](C)N)c(F)cc3C(N)=O)ccc21

output:
> 8.00
7.00 to 7.30
> 8.00

Hi team, please reply with pIC50 for each item in this list.
1. CC[C@@H](Nc1nc(Nc2cccc3c2cnn3CC(F)F)c(C(N)=O)cc1F)[C@H](C)N
2. CCOC[C@@H](Nc1nc(Nc2cnc(C)c(-n3nccn3)c2)c(C(N)=O)cc1F)[C@H](C)N
3. COc1ncc(Nc2nc(N[C@H](C3CC3)[C@H](C)N)c(F)cc2C(N)=O)cc1-n1nccn1
4. CC[C@@H](Nc1nc(Nc2cc(F)c3c(c2)c(N(C)C)nn3C)c(C(N)=O)cc1F)[C@H](C)N
5. CC[C@H](N)[C@@H](C)Nc1nc(Nc2ccc3c(c2)c(OC)nn3CCOC)c(C(N)=O)cc1F
6. CC(C)C[C@@H](Nc1nc(Nc2cc(F)c3c(c2)c(N(C)C)nn3C)c(C(N)=O)cc1F)[C@H](C)N
7. COc1cc(Nc2nc(N[C@@H](CN)Cc3ccccc3)c(F)cc2C(N)=O)cc(OC)n1
8. C[C@H](N)[C@H](Nc1nc(Nc2ccc(F)c(F)c2)c(C(N)=O)cc1F)C1CCC1

output:
1. > 8.00
2. 7.00 to 7.30
3. 7.30 to 8.00
4. > 8.00
5. 7.30 to 8.00
6. > 8.00
7. 7.30 to 8.00
8. 7.30 to 8.00

Give pIC50 for all molecules that follow.
1. COCCOc1cc(Nc2nc(N[C@H](C3CCC3)[C@H](C)N)c(F)cc2C(N)=O)ccn1
2. Cc1cccc(Nc2nc(N[C@H](C3CC3)[C@H](C)N)c(F)cc2C(N)=O)c1

output:
1. > 8.00
2. > 8.00

input: Fill in pIC50 for record COCCn1nc(OC(F)F)c2cc(Nc3nc(N[C@@H](CN)CC(C)C)c(F)cc3C(N)=O)ccc21
output: > 8.00
